Values compiled from ChEMBL document CHEMBL1142749.

As shown below, each of these compounds has a reported clearance value.
test: The total clearance after i.v. administration; format: ADME, organism-based; conditions: rat, in vivo, iv

[
  {
    "mol": "CCCC[C@H](NC(=O)O[C@H](Cc1nnc(-c2ccc(C(F)(F)F)cc2)o1)C(C)(C)C)C(=O)C(=O)Nc1ccn[nH]1",
    "clearance (mL/min/kg)": 11
  },
  {
    "mol": "CCCC[C@H](NC(=O)O[C@H](Cn1cnc(-c2ccc(C(F)(F)F)cc2)c1)C(C)(C)C)C(=O)C(=O)Nc1nccs1",
    "clearance (mL/min/kg)": 15
  },
  {
    "mol": "CCCC[C@H](NC(=O)O[C@H](Cn1ccc(-c2ccc(C(F)(F)F)cc2)n1)C(C)(C)C)C(=O)C(=O)Nc1ccccn1",
    "clearance (mL/min/kg)": 41
  },
  {
    "mol": "CCCC[C@H](NC(=O)O[C@H](Cc1nnc(-c2ccc(F)cc2)o1)C(C)(C)C)C(=O)C(=O)Nc1ccn[nH]1",
    "clearance (mL/min/kg)": 33
  }
]
